Provenance of the data: ChEMBL document CHEMBL1128457

Attribute: pKd
# experimental details: Dissociation constant (KD) of the compound
Convention used: pKd is expressed as -log10 of the molar concentration.

Answered cases to consult:
CC(C)(C)c1ccc(C(O)CCCN2CCC(C(O)(c3ccccc3)c3ccccc3)CC2)cc1 (stereo not given) :: 7.48
CN(C)CCC(c1ccc(Cl)cc1)c1ccccn1 (stereo not given) :: 8.43

Exam item: Answer with the recorded pKd for the molecule listed here: Cl.Cl.Cn1c(=O)c2c(ncn2CCCN2CCN(C(c3ccc(F)cc3)c3ccc(F)cc3)CC2)n(C)c1=O
Marked response: 8.18

Exam item: Answer with the recorded pKd for the molecule listed here: COc1ccc(CCN2CCC(Nc3nc4ccccc4n3Cc3ccc(F)cc3)CC2)cc1
Marked response: 8.26

Exam item: Answer with the recorded pKd for the molecule listed here: CC(C)(C)c1ccc(C(=O)CCCN2CCC(OC(c3ccccc3)c3ccccc3)CC2)cc1
Marked response: 8.40

====

# target system: UniProt P11229
# Sequence (P11229 whole entry): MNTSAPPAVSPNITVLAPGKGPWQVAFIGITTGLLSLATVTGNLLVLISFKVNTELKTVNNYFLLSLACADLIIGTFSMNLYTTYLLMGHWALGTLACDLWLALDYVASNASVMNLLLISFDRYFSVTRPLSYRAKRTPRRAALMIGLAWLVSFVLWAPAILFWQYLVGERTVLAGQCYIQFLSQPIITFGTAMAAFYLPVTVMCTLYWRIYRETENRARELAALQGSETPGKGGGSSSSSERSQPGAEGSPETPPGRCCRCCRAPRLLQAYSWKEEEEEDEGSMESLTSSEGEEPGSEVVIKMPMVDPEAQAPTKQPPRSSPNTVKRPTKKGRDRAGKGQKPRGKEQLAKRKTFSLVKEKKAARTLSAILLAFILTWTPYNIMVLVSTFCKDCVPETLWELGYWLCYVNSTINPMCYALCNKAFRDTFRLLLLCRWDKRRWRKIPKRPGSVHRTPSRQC
# experimental details: Compound is evaluated for in vitro receptor binding affinity against Muscarinic acetylcholine receptor M1
measured property: IC50
Give your result as the value with the unit written after it.

Exam item: Answer with the recorded IC50 for the molecule listed here: Cl.Cl.Cn1c(=O)c2c(ncn2CCCN2CCN(C(c3ccc(F)cc3)c3ccc(F)cc3)CC2)n(C)c1=O
Marked response: 670 nM

====

# experimental details: pA2 value is determined compared to standard H1-antagonists
# Type: ADME
Attribute: pA2

CN(C)CCC(c1ccc(Cl)cc1)c1ccccn1 (centres undefined) :: 8.4

Exam item: Answer with the recorded pA2 for the compound listed here: COc1ccc(CCN2CCC(Nc3nc4ccccc4n3Cc3ccc(F)cc3)CC2)cc1
Marked response: 8.3

Exam item: Answer with the recorded pA2 for the compound listed here: Cl.Cl.Cn1c(=O)c2c(ncn2CCCN2CCN(C(c3ccc(F)cc3)c3ccc(F)cc3)CC2)n(C)c1=O
Marked response: 8.2

Exam item: Answer with the recorded pA2 for the compound listed here: CC(C)(C)c1ccc(C(=O)CCCN2CCC(OC(c3ccccc3)c3ccccc3)CC2)cc1
Marked response: 7.4

====

# target system: Muscarinic acetylcholine receptor M2 (Homo sapiens)
# Sequence (P08172 whole entry): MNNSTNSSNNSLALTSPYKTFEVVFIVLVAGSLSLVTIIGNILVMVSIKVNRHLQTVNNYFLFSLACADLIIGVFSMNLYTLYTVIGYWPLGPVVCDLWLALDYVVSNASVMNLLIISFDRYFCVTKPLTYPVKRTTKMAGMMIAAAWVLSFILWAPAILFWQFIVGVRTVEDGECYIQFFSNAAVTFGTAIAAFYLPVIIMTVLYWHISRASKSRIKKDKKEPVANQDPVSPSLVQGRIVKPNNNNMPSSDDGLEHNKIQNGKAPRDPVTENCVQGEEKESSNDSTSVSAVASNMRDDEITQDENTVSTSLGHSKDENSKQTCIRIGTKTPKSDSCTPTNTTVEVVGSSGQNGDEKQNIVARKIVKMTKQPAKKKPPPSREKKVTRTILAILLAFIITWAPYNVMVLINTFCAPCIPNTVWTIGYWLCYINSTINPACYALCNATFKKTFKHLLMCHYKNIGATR
# experimental details: Compound is evaluated for in vitro receptor binding affinity against Muscarinic acetylcholine receptor M2
measured property: IC50

Exam item: Answer with the recorded IC50 for the compound listed here: Cl.Cl.Cn1c(=O)c2c(ncn2CCCN2CCN(C(c3ccc(F)cc3)c3ccc(F)cc3)CC2)n(C)c1=O
Marked response: > 10 µM
